# target.or.test.system: recombinant human PDGF-BB (human, UniProt P01127 82-190, biotin-labelled in the binding and competition ELISAs (sites not given))
# Sequence (P01127 82-190 limits assumed): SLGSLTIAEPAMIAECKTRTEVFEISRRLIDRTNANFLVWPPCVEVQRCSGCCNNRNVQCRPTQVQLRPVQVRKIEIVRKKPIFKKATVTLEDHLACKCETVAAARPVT
# measurement.description: cell-based or functional assay
Could you please report measured huPDGF-BB Neutralization Potency (nM) in NIH-3T3 Cells for the items listed next?

chBDI-1E1 half body (antibody, V domains shown) VH: EVKLQQSGDELVRPGASVKMSCKASGYTFTDYVMHWVKQSPGQGLEWIGTIIPLIDTTSYNQKFKGKATLTADKSSNTAYMELSRLTSEDSAVYYCARTSPYYYSSYDVMDAWGQGASVTVSS VL: NIQLTQSPSLLSASVGDRVTLSCKGSQNINNYLAWYQQKLGEAPKLLIYKTNNLQTGIPSRFSGCGSGTDYTLTISSLHSEDLATYYCYQYDNGYTFGAGTKLELK	> 10 nM
chBFU-11A8 half-body (antibody, V domains shown) VH: EVQLQQSGPELQRPGASVKLSCKASGYTFTESYIYWVKQRPEQSLELIGRIDPEDGSTDYVEKFKNKATLTADTSSNTAYMQLSSLTSEDTATYFCARFGARSYFYPMDAWGQGTSVTVSS VL: DTVLTQSPTLAVSPGERVSIPCRASESVSTLMHWYQQKPGQQPRLLIYGASNLESGVPARFSGSGSGTDFTLTIDPVEADDTATYFCQQSWNDPWTFGGGTKLELK	> 10 nM

We next turn to a different binder, shown below.
// field: huPDGF-BB Neutralization Potency (nM) in NIH-3T3 Cells; key: chBDI-5H1 half-body (antibody, V domains shown) VH: QVTLKESGPGILQPSQTLSLTCTFSGFSLSTFGMGVGWIRQPSGKGLEWLANIWWDDDKYYNPSLKNRLTISKDTSNSQAFLEITNVDTADTATYYCARISTGISSYYVMDAWGQGASVTVSS VL: QFTLTQPKSVSGSLRSTITIPCERSSGDIGDTYVSWYQQHLGRPPINVIYGNDQRPSEVSDRFSGSIDSSSNSASLTITNLQMDDEADYFCQSYDSDIDIVFGGGTKLTVL ; value = > 10 nM
